Experiment: growth inhibition, single agents and combos, UWB1.289, cell-based, BGB or cisplatin combos, synergistic combos for chromothripsis tumors (AID 1671456);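 further: cells exposed to compound for four days; 0% = vehicle DMSO and 100% = killing by high DMSO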
Details: UWB1.289 ovarian carcinoma cells, measured here: inhibition with cisplatin combination, at 0.05 µM, stronger effect = higher value
Quick reference: inhibition of the listed items.

Look over these answered cases.
Nc1nc2c(ncn2COC(CO)CO)c(=O)[nH]1 | 1.36%
O=C(O)P(=O)(O)O | -24%
CCn1cc(C(=O)O)c(=O)c2cc3c(cc21)OCO3 | -6.63%
Cc1oncc1C(=O)Nc1ccc(C(F)(F)F)cc1 | -27.7%

Can you share its inhibition? I mean this compound: CC(N)C12CC3CC(CC(C3)C1)C2 (centres undefined) -16.3%

Can you share its inhibition? I mean this compound: Nc1[nH]c(=O)ncc1F -21.7%

Can you share its inhibition? I mean this compound: O=NN(CCCl)C(=O)NCCCl -12%

Can you share its inhibition? I mean this compound: Cc1ccnc2c1NC(=O)c1cccnc1N2C1CC1 -13.9%

Can you share its inhibition? I mean this compound: O=c1c(O)c(-c2ccc(O)c(O)c2)oc2cc(O)cc(O)c12 -12.6%

Can you share its inhibition? I mean this compound: O=C(O)CCCCCCCC(=O)O -0.85%

Can you share its inhibition? I mean this compound: CCN1CCN(c2cc3c(cc2F)c(=O)c(C(=O)O)cn3C2CC2)CC1 -8.73%

Can you share its inhibition? I mean this compound: CN(C)c1ccc(C(=C2C=CC(=[N+](C)C)C=C2)c2ccc(N(C)C)cc2)cc1 0.874%

Can you share its inhibition? I mean this compound: NC(=O)NO -10.2%

Can you share its inhibition? I mean this compound: Nc1nc(=S)c2[nH]cnc2[nH]1 -1.37%

Attribution: PubChem BioAssay
